Consider the following compounds; for each one, report its IC50.
- system: human full-length MKNK1 (Homo sapiens, UniProt Q9BUB5, T385D)
- Sequence (Q9BUB5 1-424 isoform Q9BUB5-2 T344D): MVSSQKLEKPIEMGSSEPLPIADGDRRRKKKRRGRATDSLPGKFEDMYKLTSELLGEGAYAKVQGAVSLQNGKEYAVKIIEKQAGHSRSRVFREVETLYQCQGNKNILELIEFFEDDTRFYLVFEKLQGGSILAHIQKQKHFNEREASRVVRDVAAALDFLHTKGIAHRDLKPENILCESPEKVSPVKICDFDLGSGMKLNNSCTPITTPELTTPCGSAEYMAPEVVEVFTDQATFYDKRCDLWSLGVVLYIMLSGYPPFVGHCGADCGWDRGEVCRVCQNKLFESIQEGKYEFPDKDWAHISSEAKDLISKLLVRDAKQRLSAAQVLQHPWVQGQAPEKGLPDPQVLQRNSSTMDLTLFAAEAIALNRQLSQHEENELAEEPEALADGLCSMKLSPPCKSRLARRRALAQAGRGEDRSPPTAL
- protocol-details: MKNK1 kinase high ATP assay (TR-FRET)
- conditions: high ATP (2 mM final), 15 min preincubation with enzyme, GST-MKNK1 (T344D)
Give bare numbers, in nM.

Use these answered entries as a reference point.
{"compound": "CN1CCN(C(=O)C2CCc3[nH]c4ncnc(Nc5cc6cn[nH]c6cn5)c4c3C2)CC1 (racemic)", "unit-string": "nM", "observed-measurement": 90.4}
{"compound": "CN(C)C1CCN(C(=O)[C@H]2CCc3c(sc4ncnc(Nc5cc6cn[nH]c6nc5O)c34)C2)CC1", "unit-string": "nM", "observed-measurement": 1.4}
{"compound": "CN(C)CCCNC(=O)c1[nH]c2ncnc(Nc3cc4cn[nH]c4cn3)c2c1Br", "unit-string": "nM", "observed-measurement": 8.1}
{"compound": "O=C(c1cc2c(Nc3cc4cn[nH]c4cn3)ncnc2[nH]1)N1CCCCC1", "unit-string": "nM", "observed-measurement": 7.8}
{"compound": "Cc1c[nH]c2ncnc(Nc3cc4cn[nH]c4cn3)c12", "unit-string": "nM", "observed-measurement": 4.2}
{"compound": "CN1CCN(C(=O)C2CCc3c(sc4ncnc(Nc5cnc6[nH]ncc6c5)c34)C2)CC1 (racemic)", "unit-string": "nM", "observed-measurement": 13.8}
{"compound": "COc1nc2[nH]ncc2cc1Nc1ncnc2sc3c(c12)CC[C@H](C(=O)N1CCOC[C@@H]1C)C3", "unit-string": "nM", "observed-measurement": 0.7}

Continue with the compound presented below.
Asked: // returns reported IC50 for input COc1nc2[nH]ncc2cc1Nc1ncnc2sc3c(c12)CC[C@H](C(=O)N1CC[C@H](N(C)C)C1)C3
Given back: 1.3
